test system: LXRa homodimer (NR concentration 270 nM); assay: PBM binding z-score (relative to random genomic background probes); higher = stronger binding; sequences stand for … in GC…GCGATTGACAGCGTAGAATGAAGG
Items are presented alongside their recorded PBM binding z-score.

{"sequenceText": "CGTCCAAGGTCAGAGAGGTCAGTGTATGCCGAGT", "PBM binding z-score": 3.33}
{"sequenceText": "CGAACTAGGTCACCAGGAAAGTGAAGAGGTTGGA", "PBM binding z-score": -0.13}
{"sequenceText": "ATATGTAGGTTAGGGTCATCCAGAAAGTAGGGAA", "PBM binding z-score": 1.16}
{"sequenceText": "TTACCAAGGTCAGCTGAGGTCGTTGATCCAACTC", "PBM binding z-score": 2.43}
{"sequenceText": "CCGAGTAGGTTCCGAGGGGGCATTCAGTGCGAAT", "PBM binding z-score": 1.32}
{"sequenceText": "CCGATTAGGTTACGAGGGGGCATTCAGTGCGAAT", "PBM binding z-score": 1.59}
{"sequenceText": "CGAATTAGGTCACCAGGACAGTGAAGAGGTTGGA", "PBM binding z-score": 0.379}
{"sequenceText": "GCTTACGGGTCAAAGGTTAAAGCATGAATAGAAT", "PBM binding z-score": 0.955}
{"sequenceText": "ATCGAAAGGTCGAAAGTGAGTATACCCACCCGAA", "PBM binding z-score": 0.172}
{"sequenceText": "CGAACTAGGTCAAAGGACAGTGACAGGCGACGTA", "PBM binding z-score": 0.19}
{"sequenceText": "TGGCCTAGGTCATGCGGGCCAGTATAGTGTCGGC", "PBM binding z-score": -0.464}
{"sequenceText": "ATATGTAGGTGAGGGTCATTCAGAAAGTAGGGAA", "PBM binding z-score": 1.02}
{"sequenceText": "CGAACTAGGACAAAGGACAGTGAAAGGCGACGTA", "PBM binding z-score": -0.411}
{"sequenceText": "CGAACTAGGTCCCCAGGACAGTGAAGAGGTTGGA", "PBM binding z-score": -0.417}
{"sequenceText": "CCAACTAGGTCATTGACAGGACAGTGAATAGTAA", "PBM binding z-score": 0.961}
{"sequenceText": "AGTAGCAGGCCAAGGGTCACTCAAGATTAGTCCG", "PBM binding z-score": 0.22}
{"sequenceText": "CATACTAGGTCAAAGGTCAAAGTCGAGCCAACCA", "PBM binding z-score": 7.06}
{"sequenceText": "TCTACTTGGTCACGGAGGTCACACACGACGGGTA", "PBM binding z-score": 3.08}
{"sequenceText": "AAAATGAGGTTAAGATCAGGGAAACAGAATACAT", "PBM binding z-score": 0.171}
{"sequenceText": "CCGAGTAGGTTACGAGGGGGCATTCAGTGCGAAT", "PBM binding z-score": 1.84}
{"sequenceText": "TCGAGTAGGTTACGGGGGCTTTCAGGGATGAAGA", "PBM binding z-score": 0.118}
{"sequenceText": "ATCGAAAGGTCGTGACGTGAGTATACAGAAAGGC", "PBM binding z-score": -0.0538}
{"sequenceText": "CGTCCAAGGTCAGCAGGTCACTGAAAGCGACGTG", "PBM binding z-score": 0.808}
{"sequenceText": "ATATGTAGGTTATCGGGTCATTCATTTTGCGCAT", "PBM binding z-score": 1.9}
{"sequenceText": "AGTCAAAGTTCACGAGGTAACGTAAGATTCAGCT", "PBM binding z-score": 3.51}
{"sequenceText": "CAAAGTAGGTCAAGGTCAAAGTCGGTTTGTGCCA", "PBM binding z-score": 4.44}
{"sequenceText": "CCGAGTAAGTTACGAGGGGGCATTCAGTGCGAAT", "PBM binding z-score": 0.71}
